B1: LINE1-full (parent)
chain: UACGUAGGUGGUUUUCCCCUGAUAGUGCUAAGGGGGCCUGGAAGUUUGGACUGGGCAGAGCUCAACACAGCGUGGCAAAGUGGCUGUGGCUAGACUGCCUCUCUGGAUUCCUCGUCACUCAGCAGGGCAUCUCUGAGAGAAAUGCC

Variants of: B1
Test: self-cleavage, relative activity (ratio to wild type); higher = more cleavage; in vitro, sequencing; the parent is a self-cleaving ribozyme
RECORDED ENDPOINT: self-cleavage
Lab note: record the figure alone, no unit after it.

{"RESIDUE STRING": "UACGUAGGUGGUUUUCCCCUGAUAGUGCUAAGGGGGCCUGGAGGUUUGGACUGGGCAGAGCUCAACACAGCGUGGCAAAGUGGCGGUGGCUAGACUGCCUCUCUGGAUUCCUCGUCACUCAGCAGGGCAUCUCUGAGAGAAAUGCC [A43G U85G]", "self-cleavage": 0.15}
{"RESIDUE STRING": "UACGUAGGUGGUUUUCCCCUGGUAGUGCUAAGGGGGCCUGGAAGUUUGGACUGGGCAGAGCUCAACACAGCGUGGCAAAGUGGCCGUGGCUAGACUGCCUCUCUGGAUUCCUCGUCACUCAGCAGGGCAUCUCUGAGAGAAAUGCC [A22G U85C]", "self-cleavage": 0.27}
{"RESIDUE STRING": "UACGUAGGUGGUUUUCCCCUGAUAGUGCUAUGGGGGCCUGGAAGUUUGGACUGGGCAGAGCUCAACACAGCGUGGCGAAGUGGCUGUGGCUAGACUGCCUCUCUGGAUUCCUCGUCACUCAGCAGGGCAUCUCUGAGAGAAAUGCC [A31U A77G]", "self-cleavage": 1.39}
{"RESIDUE STRING": "UACGUAGGUGGUGUUCCCCUGAUAGUGCUAAGGGGGCCUGGAAGUUUGGACUGGGCAGAGCUCAACACAGCGUGGCAAAGUGGCUGUGGCUAGACUGCCUCUCUGGAUUCCUCGGCACUCAGCAGGGCAUCUCUGAGAGAAAUGCC [U13G U115G]", "self-cleavage": 1.43}
{"RESIDUE STRING": "UACGUAGGUGGUUUUACCCUGUUAGUGCUAAGGGGGCCUGGAAGUUUGGACUGGGCAGAGCUCAACACAGCGUGGCAAAGUGGCUGUGGCUAGACUGCCUCUCUGGAUUCCUCGUCACUCAGCAGGGCAUCUCUGAGAGAAAUGCC [C16A A22U]", "self-cleavage": 1.21}

**Q:** Quick one: self-cleavage of UGCGUAGGUGGUUUUCCCCUGAUAGUGCUAAGGGGGCCUGGAAGUUUGGACUGGGCAGAGCUCAACACAGUGUGGCAAAGUGGCUGUGGCUAGACUGCCUCUCUGGAUUCCUCGUCACUCAGCAGGGCAUCUCUGAGAGAAAUGCC [A2G C71U] ?
**A:** 0.7

**Q:** Quick one: self-cleavage of UACGUAGGUGGUUUUCCCCUGAUAGUGCUAAGGGGGCCUGGAAGUUUGGACGGGGCAGAGCUCAACACAGCGUGGCAAAGUGGCUGUGGCUAGACUGCCUCUCUGGAUUCCUCGUCACUCAGCAGGGCAUCUCUGUGAGAAAUGCC [U52G A136U] ?
**A:** 1.1

**Q:** Quick one: self-cleavage of UACGUAGGUGGUUUUCCCCUGAUAGUGCUAAGGGGGCCUGGAAGCUUGGAAUGGGCAGAGCUCAACACAGCGUGGCAAAGUGGCUGUGGCUAGACUGCCUCUCUGGAUUCCUCGUCACUCAGCAGGGCAUCUCUGAGAGAAAUGCC [U45C C51A] ?
**A:** 0.2

**Q:** Quick one: self-cleavage of UACGUAGGUGGUUUUCCCCUGAUAGUGCUAAGGGGGCCUGGAAGUUCGGACUAGGCAGAGCUCAACACAGCGUGGCAAAGUGGCUGUGGCUAGACUGCCUCUCUGGAUUCCUCGUCACUCAGCAGGGCAUCUCUGAGAGAAAUGCC [U47C G53A] ?
**A:** 1.78
